Entries and their measured pIC50 follow.
- Tested on: HL60 (Human promyelocytic leukemia cell line)
- measurement-notes: CellTiter Glo assay in HL60 cells
- Format: cell-based
- experimental-conditions: HL-60, Table 5
pIC50: −log10 of the molar value.

>>> value("Cc1ccc(NC(=O)c2ccc3cccnc3c2O)c(C)c1 [Compound 89]")
"5.00 to 6.00"

Determine its reported pIC50: O=C(Nc1cc(C(F)(F)F)cc(C(F)(F)F)c1)c1ccc2cccnc2c1O [Compound 70] 5.00 to 6.00

Determine its reported pIC50: O=C(Nc1c(Cl)cccc1Cl)c1ccc2cccnc2c1O [Compound 87] 6.00 to 7.00

Determine its reported pIC50: O=C(Nc1ccc(Cl)cc1Cl)c1ccc2cccnc2c1O [Compound 81] 6.00 to 7.00

Determine its reported pIC50: N#Cc1ccc(NC(=O)c2cc(-c3ccco3)c3cccnc3c2O)cc1 [Compound 72] 6.00 to 7.00

Determine its reported pIC50: O=C(Nc1ccc(Br)c(Cl)c1)c1ccc2cccnc2c1O [Compound 68] 6.00 to 7.00

Determine its reported pIC50: Cc1ccc(C#N)c(NC(=O)c2ccc3cccnc3c2O)c1 [Compound 86] 5.00 to 6.00

Determine its reported pIC50: Cc1cc(C(=O)Nc2ccc(C#N)cc2)c(O)c2ncccc12 [Compound 73] 5.00 to 6.00

Determine its reported pIC50: N#Cc1ccc(C#N)c(NC(=O)c2ccc3cccnc3c2O)c1 [Compound 88] 6.00 to 7.00

----------
- Tested on: KG-1 cells
- measurement-notes: Viable cell count of engineered KG-1 cell lines (CREB KD, GFP, CREB OE, CBP OE)
- Assay type: cell-based
- experimental-conditions: Homo sapiens, KG-1, 48 h, KG-1 CREB OE, 48 hours
parameter-measured: pIC50
Interpret pIC50 as the negative base-10 log of the concentration measured in mol/L.

Under KG-1 cells: report pIC50 of N#Cc1ccc(NC(=O)c2cc3ccccc3cc2O)cc1 [Compound A] . 6.16

----------
- measurement-notes: Plasma pharmacokinetics in NSG mice, quantitative mass spectrometry
- Format: in vivo
- experimental-conditions: mouse, ip, 20 mg/kg/day, 20 mg/kg/day IP
parameter-measured: half-life
Numeric answer plus unit only.

Determine its reported half-life: N#Cc1ccc(NC(=O)c2cc3ccccc3cc2O)cc1 4.3 h

----------
- Tested on: Jukat (human T lymphocyte cell line for acute T cell leukemia)
- measurement-notes: CellTiter Glo assay in Jukat cells
- Format: cell-based
- experimental-conditions: Table 5
pIC50: −log10 of the molar value.
parameter-measured: pIC50

Determine its reported pIC50: O=C(Nc1ccc(Br)c(Cl)c1)c1ccc2cccnc2c1O [Compound 68] 6.00 to 7.00

Determine its reported pIC50: N#Cc1ccc(NC(=O)c2ccc3cccnc3c2O)c(Cl)c1 [Compound 77] 6.00 to 7.00

----------
- System: Jukat (human T lymphocyte cell line for acute T cell leukemia)
- measurement-notes: CellTiter Glo assay in Jukat cells
- Format: cell-based
- experimental-conditions: Table 5
pIC50: −log10 of the molar value.
Entries and their measured pIC50 follow.

Determine its reported pIC50: O=C(Nc1ccc(C(F)(F)F)cc1)c1ccc2cccnc2c1O [Compound 66] 6.00 to 7.00

Determine its reported pIC50: O=C(Nc1ccc(Cl)cc1Cl)c1ccc2cccnc2c1O [Compound 81] 6.00 to 7.00

Determine its reported pIC50: N#Cc1ccc(NC(=O)c2ccc3cccnc3c2O)c(C#N)c1 [Compound 85] 6.00 to 7.00
